Target: T1, CD71 apical domain (UniProt P02786 189-383, limits assumed)
T1 construct: domain: Apical domain
T1 sequence (P02786 189-383 limits assumed): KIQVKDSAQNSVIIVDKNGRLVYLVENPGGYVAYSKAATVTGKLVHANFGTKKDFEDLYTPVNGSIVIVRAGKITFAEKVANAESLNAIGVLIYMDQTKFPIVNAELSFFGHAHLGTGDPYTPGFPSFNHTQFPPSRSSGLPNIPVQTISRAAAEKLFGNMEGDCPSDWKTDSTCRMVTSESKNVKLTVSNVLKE
Test: solution ELISA
Apical domain, RLU reference
Numeric only. Scale: RLU

Known results for binders:
SEQ ID NO 148 (designed binder, FN3 domain) MLPAPKNLVVSRVTEDSARLSWTAPDAAFDSFYIAYAEPRPDGEAIALHVPGSERSYDLTGLKPGTEYSVLIHGVKGGLLSSPLRAVFTT; 3.41e+06
SEQ ID NO 106 (designed binder, FN3 domain) MLPAPKNLVVSRVTEDSARLSWTAPDAAFDSFYIAYAEPRPDGEAILLDVPGSERSYDLTGLKPGTEYSVLIHGVKGGLLSSPLYASFTT; 7.37e+06
SEQ ID NO 200 (designed binder, FN3 domain) MLPAPKNLVVSRVTEDSARLSWTAPDAAFDSFYIAYAEPRPDGEAIWLEVPGSERSYDLTGLKPGTEYSVLIHGVKGGLLSSPLVADFTT; 6.1e+06

QUERY: Data request, read-out Apical domain, RLU, for SEQ ID NO 126 (designed binder, FN3 domain) MLPAPKNLVVSRVTEDSARLSWTAPDAAFDSFFIGYLEPQPPGEAIHLHVPGSERSYDLTGLKPGTEYNVTIQGVKGGFPSIPLHANFTT
RESULT: 4.42e+06

QUERY: Try this binder next: SEQ ID NO 170 (designed binder, FN3 domain) MLPAPKNLVVSRVTEDSARLSWTAPDAAFDSFYIAYAEPRPDGEAIHLLVPGSERSYDLTGLKPGTEYSVLIHGVKGGLLSSPLLAHFTT
RESULT: 4.86e+06

QUERY: Try this binder next: SEQ ID NO 160 (designed binder, FN3 domain) MLPAPKNLVVSRVTEDSARLSWTAPDAAFDSFYIAYAEPRPDGEAIVLTVPGSERSYDLTGLKPGTEYSVLIHGVKGGLLSSPLLAYFTT
RESULT: 8.31e+06

QUERY: Try this binder next: SEQ ID NO 167 (designed binder, FN3 domain) MLPAPKNLVVSRVTEDSARLSWTAPDAAFDSFFIGYLEPQPPGEAIILGVPGSERSYDLTGLKPGTEYSVLIHGVKGGLLSSPLHAYSTT
RESULT: 128000

QUERY: Try this binder next: SEQ ID NO 169 (designed binder, FN3 domain) MLPAPKNLVVSRVTEDSARLSWTAPDAAFDSFYIAYAEPRPDGEAILLLVPGSERSYDLTGLKPGTEYSVLIHGVKGGLLSSPLSAVFTT
RESULT: 7.21e+06

QUERY: Try this binder next: SEQ ID NO 179 (designed binder, FN3 domain) MLPAPKNLVVSRVTEDSARLSWTAPDAAFDSFPIAYAEPRPDGEAIVLTVPGSERSYDLTGLKPGTEYSVLIHGVKGGLLSSPLSAFFTT
RESULT: 7.29e+06

QUERY: Try this binder next: SEQ ID NO 171 (designed binder, FN3 domain) MLPAPKNLVVSRVTEDSARLSWTAPDAAFDSFYIAYAEPRPDGEAIQLWVPGSERSYDLTGLKPGTEYSVLIHGVKGGLLSSPLDAYFTT
RESULT: 5.48e+06

QUERY: Try this binder next: SEQ ID NO 202 (designed binder, FN3 domain) MLPAPKNLVVSRVTEDSARLSWTAPDAAFDSFDIGYTEYGGYGEAILHVPGSERSYDLTGLKPGTEYWVLIQGVKGGGSSVPLSAIFTT
RESULT: 5.47e+06

QUERY: Try this binder next: SEQ ID NO 189 (designed binder, FN3 domain) MLPAPKNLVVSRVTEDSARLSWTAPDAAFDSFYIAYAEPRPDGEAIQLTVPGSERSYDLTGPKPGTEYWVLIQGVKGGGSSVPLVAYFTT
RESULT: 98900

QUERY: Try this binder next: SEQ ID NO 110 (designed binder, FN3 domain) MLPAPKNLVVSRVTEDSARLSWTAPDAAFDSFFIGYLEPQPPGEAIYLTVPGSERSYDLTGLKPGTEYNVTIQGVKGGFPSYPLDASFTT
RESULT: 803000

QUERY: Try this binder next: SEQ ID NO 125 (designed binder, FN3 domain) MLPAPKNLVVSRVTEDSARLSWTAPDAAFDSFYIAYAEPRPDGEAIALHVPGSERSYDLTGLKPGTEYSVLIHGVKGGLLSSPLVAFFTT
RESULT: 5.26e+06

QUERY: Try this binder next: SEQ ID NO 195 (designed binder, FN3 domain) MLPAPKNLVVSRVTEDSARLSWTAPDAAFDSFYIAYAEPRPDGEAIILDVPGSERSYDLTGLKPGTEYSVLIHGVKGGLLSSPLSSIFTT
RESULT: 7.35e+06

QUERY: Try this binder next: SEQ ID NO 178 (designed binder, FN3 domain) MLPAPKNLVVSRVTEDSARLSWTAPDAAFDSFYIAYAEPRPDGEAIQLQVPGSERSYDLTGLKPGTEYSVLIHGVKGGLLSSPLSAIVTT
RESULT: 4.95e+06

QUERY: Try this binder next: SEQ ID NO 123 (designed binder, FN3 domain) MLPAPKNLVVSRVTEDSARLSWTAPDAAFDSFFIGYLEPQPPGEAIQLWVPGSERSYDLTGLKPGTEYNVTIQGVKGGFPSHPLGAVFTT
RESULT: 4.78e+06

QUERY: Try this binder next: SEQ ID NO 180 (designed binder, FN3 domain) MLPAPKNLVVSRVTEDSARLSWTAPDAAFDSFYIAYAEPRPDGEAIALLVPGSERSYDLTGLKPGTEYSVLIHGVKGGLLSSPLVAQFTT
RESULT: 3.88e+06
